Biological target: human kappa opioid receptors (Homo sapiens, UniProt P41145)
Construct: expressed in transfected cells; host or cells: U2OS
Experiment: [35S]GTPγS stimulation, membranes from U2OS cells
Format: biochemical
Details: read-out: GTPγS stimulation % efficacy
Threshold check on Emax: at or above 80% gives met, strictly below gives not met.

compound: O=C(Cc1ccc(Cl)c(Cl)c1)N1CCN(CC2CCC2)[C@@H]2COC[C@H](N3CCCC3)[C@H]21 (single isomer, unassigned) [Example 5A55A]
assigned class: met

compound: O=C(Cc1ccc(Cl)c(Cl)c1)N1CCN(CC2CCCC2)[C@@H]2COC[C@H](N3CCCC3)[C@H]21 (racemic) [Example 5A54]
assigned class: not met

compound: O=C(Cc1ccc(Cl)c(C(F)(F)F)c1)N1CCN[C@@H]2COC[C@H](N3CCCC3)[C@H]21 (racemic) [Example 5A46]
assigned class: met

compound: O=C(Cc1cccc(Cl)c1)N1CCN[C@@H]2COC[C@H](N3CCCC3)[C@H]21 (racemic) [Example 5A24]
assigned class: not met

compound: O=C(Cc1ccc(Cl)c(Cl)c1)N1CCN(S(=O)(=O)C2CC2)[C@@H]2COC[C@H](N3CCCC3)[C@H]21 (racemic) [Example 5A52]
assigned class: met

compound: CN(C)[C@H]1COC[C@H]2NCCN(C(=O)Cc3ccc(Cl)c(Cl)c3)[C@@H]21 (racemic) [Example 5A51]
assigned class: not met

compound: O=C(Cc1cccc(Cl)c1)N1CCN[C@@H]2COC[C@H](N3CCCC3)[C@H]21 (single isomer, unassigned) [Example 5A24A]
assigned class: met

compound: COC(=O)N1CCN(C(=O)Cc2ccc(Cl)c(Cl)c2)[C@H]2[C@H]1COC[C@@H]2N1CCCC1 (racemic) [Example 5A67]
assigned class: met

compound: O=C(Cc1ccc(Cl)c(Cl)c1)N1CCN(CC2CC2)[C@@H]2COC[C@H](N3CCCC3)[C@H]21 (racemic) [Example 5A70]
assigned class: met

compound: O=C(Cc1ccc(Cl)c(F)c1)N1CCN[C@@H]2COC[C@H](N3CCCC3)[C@H]21 (racemic) [Example 5A65]
assigned class: met

compound: CN1CCN(C(=O)Cc2ccc(Cl)c(Cl)c2)[C@H]2[C@H]1COC[C@@H]2N1CCCC1 (racemic) [Example 5A23]
assigned class: not met

compound: O=C(Cc1cc(Cl)cc(Cl)c1)N1CCN[C@@H]2COC[C@H](N3CCCC3)[C@H]21 (racemic) [Example 5A32]
assigned class: not met

compound: CCCN1CCN(C(=O)Cc2ccc(Cl)c(Cl)c2)[C@H]2[C@H]1COC[C@@H]2N1CCCC1 (racemic) [Example 5A72]
assigned class: met

compound: CS(=O)(=O)N1CCN(C(=O)Cc2ccc(Cl)c(Cl)c2)[C@H]2[C@H]1COC[C@@H]2N1CCCC1 (single isomer, unassigned) [Example 5A44A]
assigned class: met

compound: Cc1ccc(CC(=O)N2CCN[C@@H]3COC[C@H](N4CCCC4)[C@H]32)cc1C (racemic) [Example 5A40]
assigned class: met

compound: Cc1ccc(CC(=O)N2CCN[C@@H]3COC[C@H](N4CCCC4)[C@H]32)cc1C(F)(F)F (racemic) [Example 5A47]
assigned class: met

compound: Cc1ccc(CC(=O)N2CCN[C@@H]3COC[C@H](N4CCCC4)[C@H]32)cc1Cl (racemic) [Example 5A57]
assigned class: met

compound: Cc1cc(CC(=O)N2CCN[C@@H]3COC[C@H](N4CCCC4)[C@H]32)ccc1Cl (racemic) [Example 5A58]
assigned class: met

compound: CS(=O)(=O)N1CCN(C(=O)Cc2ccc(Cl)c(Cl)c2)[C@H]2[C@H]1COC[C@@H]2N1CCCC1 (racemic) [Example 5A44]
assigned class: met

compound: CCN(CC)[C@H]1COC[C@H]2NCCN(C(=O)Cc3ccc(Cl)c(Cl)c3)[C@@H]21 (racemic) [Example 5A64]
assigned class: not met

###

Documented Emax at 10 µM across a set of compounds
Molecular target: kappa opioid receptor (PathHunter U2OS hOPRK1 β-arrestin cell line) (Homo sapiens, UniProt P41145)
Construct: host or cells: U2OS (PathHunter U2OS hOPRK1 β-arrestin cell line)
Sequence (P41145 whole entry): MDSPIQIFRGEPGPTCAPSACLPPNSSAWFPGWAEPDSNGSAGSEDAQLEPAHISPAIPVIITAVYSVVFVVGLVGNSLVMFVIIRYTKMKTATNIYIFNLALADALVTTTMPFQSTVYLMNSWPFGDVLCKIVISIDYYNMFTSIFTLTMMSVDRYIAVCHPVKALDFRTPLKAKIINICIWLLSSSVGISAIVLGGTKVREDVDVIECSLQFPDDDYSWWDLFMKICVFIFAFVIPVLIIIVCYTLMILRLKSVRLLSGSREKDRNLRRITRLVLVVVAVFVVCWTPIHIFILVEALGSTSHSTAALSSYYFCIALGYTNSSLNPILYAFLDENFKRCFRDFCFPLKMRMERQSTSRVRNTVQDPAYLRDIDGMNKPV
Experiment: β-arrestin coupling (PathHunter Detection Kit)
Format: cell-based
Settings: U2OS, read-out: β-arrestin coupling % efficacy

compound: Cc1ccc(CC(=O)N2CCN[C@@H]3COC[C@H](N4CCCC4)[C@H]32)cc1C(F)(F)F (racemic)
Emax at 10 µM: 78%
--
compound: O=C(Cc1ccc(C(F)(F)F)cc1)N1CCN[C@@H]2COC[C@H](N3CCCC3)[C@H]21 (racemic)
Emax at 10 µM: 36%
--
compound: O=C(Cc1ccc(Cl)c(Cl)c1)N1CCN(S(=O)(=O)C2CC2)[C@@H]2COC[C@H](N3CCCC3)[C@H]21 (racemic)
Emax at 10 µM: 79%
--
compound: CN1CCN(C(=O)Cc2ccc(Cl)c(Cl)c2)[C@H]2[C@H]1COC[C@@H]2N1CCCC1 (racemic)
Emax at 10 µM: 44%
--
compound: O=C(Cc1cccc(C(F)(F)F)c1)N1CCN[C@@H]2COC[C@H](N3CCCC3)[C@H]21 (racemic)
Emax at 10 µM: 42%
--
compound: COC(=O)N1CCN(C(=O)Cc2ccc(Cl)c(Cl)c2)[C@H]2[C@H]1COC[C@@H]2N1CCCC1 (racemic)
Emax at 10 µM: 85%

###

Target: kappa opioid receptor (PathHunter U2OS hOPRK1 β-arrestin cell line) (Homo sapiens)
Construct: host or cells: U2OS (PathHunter U2OS hOPRK1 β-arrestin cell line)
Test: β-arrestin coupling (PathHunter Detection Kit)
Type: cell-based
Conditions: U2OS, read-out: β-arrestin coupling % efficacy at 10 μM
Procedure: Membranes from cells stably expressing kappa, mu or delta opioid receptor constructs (PathHunter U2OS hOPRK1, CHO-K1 rOPRM1 and CHO-K1 OPRD1 β-arrestin cell line, DiscoverX, Fremont, Calif., USA) were used. […] Bound tritiated ligand was quantified using a TriCarb-2900TR scintillation counter (Packard, Downers Grove, Ill., USA) following addition of 4 ml ReadySafe scintillation fluid (Beckman Coulter, Indianapolis, Ind., USA). […]

compound: O=C(Cc1cccc(Cl)c1)N1CCN[C@@H]2COC[C@H](N3CCCC3)[C@H]21 (single isomer, unassigned) [Example 5A24A]
Emax at 10 µM: 0%
--
compound: Cc1ccc(CC(=O)N2CCN[C@@H]3COC[C@H](N4CCCC4)[C@H]32)cc1Cl (racemic) [Example 5A57]
Emax at 10 µM: 20%
--
compound: CS(=O)(=O)N1CCN(C(=O)Cc2ccc(Cl)c(Cl)c2)[C@H]2[C@H](N3CCCC3)COC[C@@H]21 (single isomer, unassigned) [Example 5A44B]
Emax at 10 µM: 70%
--
compound: O=C(Cc1ccc(Cl)c(F)c1)N1CCN[C@@H]2COC[C@H](N3CCCC3)[C@H]21 (racemic) [Example 5A65]
Emax at 10 µM: 20%
--
compound: O=C(Cc1ccc(Cl)c(Cl)c1)N1CCN(CC2CC2)[C@@H]2COC[C@H](N3CCCC3)[C@H]21 (racemic) [Example 5A70]
Emax at 10 µM: 50%
--
compound: O=C(Cc1ccc(Cl)c(Cl)c1)N1CCN(S(=O)(=O)C2CC2)[C@@H]2COC[C@H](N3CCCC3)[C@H]21 (single isomer, unassigned) [Example 5A52A]
Emax at 10 µM: 60%

###

Documented Emax across a set of compounds
Target: human kappa opioid receptors (Homo sapiens)
Construct: expressed in transfected cells; host or cells: U2OS
Assay: [35S]GTPγS stimulation, membranes from U2OS cells
Assay type: biochemical
Details: read-out: GTPγS stimulation % efficacy
Procedure: Membranes from cells stably expressing kappa, mu or delta opioid receptor constructs (PathHunter U2OS hOPRK1, CHO-K1 rOPRM1 and CHO-K1 OPRD1 β-arrestin cell line, DiscoverX, Fremont, Calif., USA) were used. […] Bound tritiated ligand was quantified using a TriCarb-2900TR scintillation counter (Packard, Downers Grove, Ill., USA) following addition of 4 ml ReadySafe scintillation fluid (Beckman Coulter, Indianapolis, Ind., USA). […]
reported property: Emax (%)

compound: O=C(Cc1ccc(Cl)c(Cl)c1)N1CCN(S(=O)(=O)C2CC2)[C@H]2COC[C@@H](N3CCCC3)[C@@H]21 (single isomer, unassigned) [Example 5A52B]
recorded measurement: 96
//
compound: O=C(Cc1ccc(Cl)c(Cl)c1)N1CCN[C@@H]2COC[C@H](N3CCCC3)[C@H]21 (racemic) [Example 5A22]
recorded measurement: 96
//
compound: CN(CC1CC1)[C@H]1COC[C@H]2NCCN(C(=O)Cc3ccc(Cl)c(Cl)c3)[C@@H]21 (racemic) [Example 5A50]
recorded measurement: 79
//
compound: O=C(Cc1ccc(Cl)c(Cl)c1)N1CCN(CC2CCC2)[C@H]2COC[C@@H](N3CCCC3)[C@@H]21 (single isomer, unassigned) [Example 5A55B]
recorded measurement: 62
//
compound: O=C(Cc1ccc(F)c(Cl)c1)N1CCN[C@@H]2COC[C@H](N3CCCC3)[C@H]21 (racemic) [Example 5A25]
recorded measurement: 93
//
compound: CS(=O)(=O)N1CCN(C(=O)Cc2ccc(Cl)c(Cl)c2)[C@H]2[C@H](N3CCCC3)COC[C@@H]21 (single isomer, unassigned) [Example 5A44B]
recorded measurement: 105

Data origin: patent US11091497B2
